- System: OVCAR-4 ovarian
- procedure details: NCI-60 one-dose screen, 48 h (100 = growth as untreated, 0 = no growth, -100 = all killed)
- study conditions: 10 µM unless noted
The panel holds about 83,000 compounds, 20% with a hit somewhere; the sample as a whole holds those more often. The source made the active and inactive calls. How the source made its calls: active means growth percent below 10; inactive means the rest.
property measured: growth

Some solved cases for reference:
- compound: "Cc1cc(C(=O)Nc2cc(Nc3ncccc3-c3ncnc4nc[nH]c34)ccc2F)cc(C(C)(C)C#N)c1"
  growth: "53.2% (inactive)"
- compound: "CCOC(=O)CCC(=O)P(=O)(O)O"
  growth: "115% (inactive)"
- compound: "O=C(O)CCCN1C(=O)CSC1=S"
  growth: "102% (inactive)"

Problem: Report growth for Brc1ccc(-c2nn(-c3ccccc3)cc2-c2nn[nH]n2)s1 please.
Solution: 92.7% (inactive)

Problem: Report growth for CCOC(=O)CC1CSC(N/N=C/c2ccc(O)cc2)=N1 (configuration not stated) please.
Solution: 108% (inactive)

Problem: Report growth for CCCCCCCCCCCCCC[n+]1ccc2c(C)c3c(c(C)c2c1)c1cc(O)ccc1n3CC please.
Solution: -59.8% (active)

Problem: Report growth for COc1c(O[C@@H]2OC(CO)[C@H](O)[C@H](O)C2O)cc2oc3cc(O)c(CC=C(C)C)c(O)c3c(=O)c2c1CC=C(C)C (some centres not stated) please.
Solution: 115% (inactive)

Problem: Report growth for COc1cc(/C=C2\C(=O)N(CCOc3cc(O)c4c(=O)cc(-c5ccccc5)oc4c3)c3ccccc32)cc(OC)c1O please.
Solution: 82.3% (inactive)

Problem: Report growth for O=C1/C(=C/c2ccc(-c3ccc(Cl)cc3)o2)SC(=S)N1CCc1ccc(O)cc1 please.
Solution: 25.6% (inactive)

Problem: Report growth for Cc1ccc2c(n1)C[C@H](C(C)(C)O)CC[C@H]2C please.
Solution: 99.6% (inactive)

Problem: Report growth for N#Cc1nn(-c2ccccn2)c(N)c1C#N please.
Solution: 105% (inactive)

Problem: Report growth for COc1ccc(C2=C/C(=C\c3ccccc3O)C(=O)N2Cc2ccccc2)cc1 please.
Solution: 92.6% (inactive)

Problem: Report growth for Cc1ccc(C(F)(F)F)cc1N1CCN(C(=O)[C@H]2C[C@H]2c2ccc(C(F)(F)F)nc2)CC1 please.
Solution: 92% (inactive)
